System: HB3
Test: qHTS profiling for inhibitors of Plasmodium falciparum proliferation (AID 504749); further: nearly all actives have a fitted effect of over 60% in size
Conditions: P. falciparum in erythrocytes, SYBR Green DNA, 72 h; series mostly up to 28.7 µM
Inconclusive results are not listed. Calls of active or inactive are those of the source. The call rests on the fitted dose curve; in most records, active means well fitted inhibition curve with a large enough effect; inconclusive means small, poorly fitted or top-dose-only effect; inactive means flat fitted curve, though single readings scatter.
I would appreciate it if you answered using one of these outcomes: TRUE for active, FALSE for inactive

Illustrative cases are given below, each with its answer.
CCCCCCCCCCCCCC[n+]1ccc(C)cc1
TRUE
C=C1C(=CC=C2CCC[C@@]3(C)[C@@H]2CC[C@H]3[C@H](C)CCCC(C)C)C[C@@H](O)C[C@@H]1O
TRUE
CC(C)N=c1cc2n(-c3ccc(Cl)cc3)c3ccccc3nc-2cc1Nc1ccc(Cl)cc1
FALSE

Asked: How did this test come out for "CN(C)CCCN1c2ccccc2C(C)(C)c2ccccc21" ?
Given back: FALSE

Asked: How did this test come out for "CC1=C(/C=C/C(C)=C/C=C/C(C)=C/C=C/C=C(C)/C=C/C=C(C)/C=C/C2=C(C)C(=O)CCC2(C)C)C(C)(C)CCC1=O" ?
Given back: FALSE

Asked: How did this test come out for "CCNC(=O)[C@@H]1CCCN1C(=O)[C@H](CCCN=C(N)N)NC(=O)[C@H](CC(C)C)NC(=O)[C@@H](Cc1c[nH]c2ccccc12)NC(=O)[C@H](Cc1ccc(O)cc1)NC(=O)[C@H](CO)NC(=O)[C@H](Cc1c[nH]c2ccccc12)NC(=O)[C@H](Cc1cnc[nH]1)NC(=O)[C@@H]1CCC(=O)N1" ?
Given back: TRUE

Asked: How did this test come out for COC(=O)[C@H]1[C@H]2CC3c4[nH]c5ccccc5c4CCN3C[C@@H]2CC[C@@H]1O (some centres not stated) ?
Given back: FALSE

---

Assay: qHTS profiling for inhibitors of Plasmodium falciparum (DD2) proliferation (AID 743323)
Conditions: lower = more inhibition; at 28.7 µM (top of the series) unless noted
*1 amine or outer side, *2 acyl side, *3 side chain or, on linkers, in order; H or OH if unused. Where a SMILES comes first, the peptide text is derived from it. Bridges are numbered along the chain shown (N, C = ends). Roman numbers before positions name the chains, in order. [ ]: non-standard residue; d: D form. ξ: configuration not given here. Actinocin(9to1) = Cc1c2oc3c(C)ccc(C(=O)[*:1])c3nc-2c(C(=O)[*:2])c(N)c1=O; ξNMeV = CNC(C(=O)O)C(C)C; ξV = CC(C)C(N)C(=O)O; Sar = CNCC(=O)O
// activity, percent of control lookup, one value per entry
Just the number please, in %, no unit attached.

Worked examples follow.
CC[C@@H](C(=O)O)C1CC[C@H](C)C([C@@H](C)[C@H](O)[C@H](C)C(=O)[C@H](CC)C2O[C@]3(C=C[C@@H](O)[C@]4(CC[C@@](C)(C5CC[C@](O)(CC)[C@H](C)O5)O4)O3)[C@H](C)C[C@@H]2C)O1 (stereo not given in full)
-0.726
CN1CCC(CN2c3ccccc3Sc3ccccc32)C1 (stereo not given)
26.9
CCCC(=O)O[C@]1(C(=O)CCl)[C@H](C)C[C@@H]2[C@H]3CCC4=CC(=O)C=C[C@]4(C)[C@@]3(F)C(=O)C[C@@]21C
1.4

Now look at this one.
Looking up Cc1c2oc3c(C)ccc(C(=O)N[C@@H]4C(=O)NC(C(C)C)C(=O)N5CCC[C@H]5C(=O)N(C)CC(=O)N(C)C(C(C)C)C(=O)O[C@@H]4C)c3nc-2c(C(=O)N[C@@H]2C(=O)NC(C(C)C)C(=O)N3CCC[C@H]3C(=O)N(C)CC(=O)N(C)C(C(C)C)C(=O)O[C@@H]2C)c(N)c1=O (stereo not given in full) (I: T[ξV]P[Sar][ξNMeV] / II: T[ξV]P[Sar][ξNMeV]; ester I:1-I:C, II:1-II:C; linker I:N-II:N via Actinocin(9to1)) , I found its activity, percent of control recorded as -1.83

---

Test system: GB4
Assay: qHTS profiling for inhibitors of Plasmodium falciparum proliferation (AID 504749); further: nearly all actives have a fitted effect of over 60% in size
Settings: P. falciparum in erythrocytes, SYBR Green DNA, 72 h; series mostly up to 28.7 µM
Results filed as inconclusive are left out. The source made the active and inactive calls. Calls come from the whole dose curve; as a rule, active = well fitted inhibition curve with a large enough effect; inconclusive = small, poorly fitted or top-dose-only effect; inactive = flat fitted curve, though single readings scatter.
I would appreciate it if you answered using one of these outcomes: Y for active, N for inactive

Illustrative cases are given below, each with its answer.
CCCCC(C)(O)C/C=C/[C@H]1[C@H](O)CC(=O)[C@@H]1CCCCCCC(=O)OC (stereo not given in full)
N
CCC(=O)NCCC1CCc2ccc3c(c21)CCO3 (stereo not given)
N
C=CCSSSCC=C
N

Asked: How did this test come out for "COC(=O)CCC(=O)CN" ?
Given back: N

Asked: How did this test come out for "CC(C)N=c1cc2n(-c3ccc(Cl)cc3)c3ccccc3nc-2cc1Nc1ccc(Cl)cc1" ?
Given back: N

---

Tested on: CP286
Test: qHTS profiling for inhibitors of Plasmodium falciparum proliferation (AID 504749); further: nearly all actives have a fitted effect of over 60% in size
Conditions: P. falciparum in erythrocytes, SYBR Green DNA, 72 h; series mostly up to 28.7 µM
Inconclusive results are not listed. Activity calls are given as the source filed them. Calls follow the shape of the dose curve; as a rule, active = well fitted inhibition curve with a large enough effect; inconclusive = small, poorly fitted or top-dose-only effect; inactive = flat fitted curve, though single readings scatter.
I would appreciate it if you answered using one of these outcomes: yes = active, no = inactive

Illustrative cases are given below, each with its answer.
Nc1c(N=Nc2ccc(-c3ccc(N=Nc4cc(S(=O)(=O)O)c5ccccc5c4N)cc3)cc2)cc(S(=O)(=O)O)c2ccccc12
no
CCCCC/C=C\C/C=C\CCCCCCCC(=O)O
no
CCCC(=O)O[C@]1(C(=O)CCl)[C@H](C)C[C@@H]2[C@H]3CCC4=CC(=O)C=C[C@]4(C)[C@@]3(F)C(=O)C[C@@]21C
yes
COC(F)(F)C(Cl)Cl
no
Cc1cc(C(=O)NNCc2ccccc2)no1
no

Asked: How did this test come out for "IC(I)I" ?
Given back: no

Asked: How did this test come out for "O=CCCCC=O" ?
Given back: no

Asked: How did this test come out for "CCCCCCCC/C=C\CCCCCCCC(=O)O" ?
Given back: no

---

Test system: Zika virus NS2B-NS3 protease (unlinked complex)
Test: Primary screen GU Rhodamine qHTS for Zika virus inhibitors: Unlinked NS2B-NS3 protease assay (AID 1347159); further: nearly all actives have a fitted effect of over 60% in size
Settings: Recombinant ZIKV NS2B-NS3 protease, Rhodamine110 substrate fluorescence; series mostly up to 107 µM
Results filed as inconclusive are left out. The source made the active and inactive calls. The call rests on the fitted dose curve; in most records, active means well fitted inhibition curve with a large enough effect; inconclusive means small, poorly fitted or top-dose-only effect; inactive means no such curve, though single readings can be large or run the other way.
I would appreciate it if you answered using one of these outcomes: active, inactive

Asked: How did this test come out for "CCCCNC(=O)[C@@H]1Cc2ccccc2N1C(=O)[C@@H](N)CC" ?
Given back: inactive

Asked: How did this test come out for CC[C@H]1OC(=O)[C@H](C)[C@@H](OC2C[C@@](C)(OC)[C@@H](O)[C@H](C)O2)[C@H](C)[C@@H](OC2O[C@H](C)C[C@H](NC)[C@H]2O)[C@](C)(O)C[C@@H](C)CN(C)[C@H](C)[C@@H](O)[C@]1(C)O (stereo partly specified) ?
Given back: inactive

Asked: How did this test come out for "CC(=O)OC[C@@]12[C@@H](OC(C)=O)C[C@@H](C)[C@](C)([C@@H]3C[C@H]4C=CO[C@H]4O3)[C@H]1CCC[C@]21CO1" ?
Given back: inactive

Asked: How did this test come out for C=CC(C)(CC/C=C(\C)CC/C=C(\C)CC(O)/C=C(\C)C(=O)O)O[C@@H]1O[C@H](CO)[C@@H](O)[C@H](O)[C@H]1O[C@@H]1O[C@H](CO)[C@@H](O)[C@H](O)[C@H]1O (stereo partly specified) ?
Given back: inactive

Asked: How did this test come out for NCc1c[nH]c(=S)n1C1CCc2c(F)cc(F)cc2C1 (stereo unspecified) ?
Given back: inactive

Asked: How did this test come out for Cc1coc2c1CC1OC1(C)CCC1OC1(C)C2 (stereo unspecified) ?
Given back: inactive

Asked: How did this test come out for "c1nc(NC2CCCCCC2)c2cc(CNC[C@H]3CCCO3)sc2n1" ?
Given back: inactive

Asked: How did this test come out for "CC(C)C(=O)c1cn(CC(=O)COc2ccc(Oc3ccccc3)cc2)c2ccc(C(=O)O)cc12" ?
Given back: active

---

Tested on: JEG-3
Assay: Primary qHTS to identify gynecologic anti-cancer compounds using libraries of approved drugs and bioactive compounds (AID 1345084); further: on the % scale 0 is the no-effect control and ±100 the full control effect; nearly all actives have a fitted effect of over 55% in size
Settings: Gynecologic cancer cell panel viability, ATPlite luminescence, 48 h; series mostly up to 57.5 µM
Inconclusive results are not listed. The source made the active and inactive calls. Calls come from the whole dose curve; as a rule, active = well fitted cell-killing curve with a large enough effect; inconclusive = small, poorly fitted or top-dose-only effect, or effect the other way; inactive = flat fitted curve, though single readings scatter.
Endpoint Name: activity change, negative = cytotoxicity

CC1CCC2(NC1)OC1C(=O)C3C4CCC5CC(O[C@@H]6O[C@H](CO)[C@@H](O)[C@H](O)[C@H]6O[C@@H]6O[C@@H](C)[C@H](O)[C@@H](O)[C@H]6O)CCC5(C)C4CCC3(C)C1C2C (some centres undefined)
inactive
C=CCc1ccc(O[C@@H]2O[C@H](CO[C@@H]3O[C@H](CO)[C@@H](O)[C@H](O)[C@H]3O)[C@@H](O)[C@H](O)[C@H]2O)c(O)c1
inactive
Clc1ccc(CN[C@H]2CCN(c3ncc(Br)cn3)C2)c(Cl)c1
inactive
Cc1cc(O)cc(Oc2cc(C)c(C(=O)O)c(O)c2)c1
inactive
